Biological target: human 20S proteasome subunit β1 (Homo sapiens, UniProt P28072)
Construct: human constitutive 20S proteasome (h20S), whole complex; catalytic N-terminal Thr1; with other subunits of the 20S proteasome (α1–α7, β1–β7)
Sequence (Q06323 whole entry): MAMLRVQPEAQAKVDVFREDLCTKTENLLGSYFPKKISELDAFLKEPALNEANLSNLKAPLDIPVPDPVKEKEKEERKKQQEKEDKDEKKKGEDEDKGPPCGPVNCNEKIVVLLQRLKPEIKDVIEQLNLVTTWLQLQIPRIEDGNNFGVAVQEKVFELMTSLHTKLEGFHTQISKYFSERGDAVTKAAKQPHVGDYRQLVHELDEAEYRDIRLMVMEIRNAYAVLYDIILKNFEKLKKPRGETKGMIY
Sequence (P28072 35-239): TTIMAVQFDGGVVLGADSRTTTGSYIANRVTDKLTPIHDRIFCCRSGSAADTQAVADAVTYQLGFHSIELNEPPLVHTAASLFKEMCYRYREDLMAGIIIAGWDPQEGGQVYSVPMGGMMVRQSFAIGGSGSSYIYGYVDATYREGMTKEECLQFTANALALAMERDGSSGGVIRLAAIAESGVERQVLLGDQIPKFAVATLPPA
Experiment: cryo-EM structure at […] Å; IC50 with Z-LLE-amc
Property name: IC50 (nM)
Numeric only. Scale: nM

Request: // Input: C[C@@]12OC(=O)[C@]1([C@@H](O)[C@@H]1C=CCCC1)NC(=O)[C@@H]2CCCl . Output its IC50 only.
Response: 597

---

Target: human 20S proteasome subunit β5 (Homo sapiens, UniProt P28074)
Construct: human constitutive 20S proteasome (h20S), whole complex; catalytic N-terminal Thr1; with other subunits of the 20S proteasome (α1–α7, β1–β7)
Sequence (Q06323 whole entry): as the sequence (Q06323 whole entry) above
Sequence (P28074 60-263): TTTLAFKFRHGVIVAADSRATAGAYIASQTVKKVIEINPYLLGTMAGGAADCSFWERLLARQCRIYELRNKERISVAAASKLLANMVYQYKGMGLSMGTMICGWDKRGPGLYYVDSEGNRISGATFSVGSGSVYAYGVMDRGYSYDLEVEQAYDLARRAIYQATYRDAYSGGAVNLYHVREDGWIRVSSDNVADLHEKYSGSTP
Assay: cryo-EM structure at […] Å; IC50 with Suc-LLVY-amc
Property name: pIC50
# reply with the number alone; pIC50 is -log10 of concentration in mol/L

Request: Quote pIC50 reported for C[C@@]12OC(=O)[C@]1([C@@H](O)[C@@H]1C=CCCC1)NC(=O)[C@@H]2CCCl [MZB, Marizomib] please.
Response: 7.73

Values from paper PMC11946101
